target: T1, RSV-F.mmh (Respiratory Syncytial Virus); assay: SPR (Biacore), mAb captured via Fc, soluble RSV-F.mmh injected, 25 C
T1 construct: also called recombinant RSV-F; soluble monomeric RSV-F
READOUT TYPE: kon (M⁻¹ s⁻¹)
Your answer is read as M⁻¹ s⁻¹, so omit the unit and give the number.

binder="H1M3622N (antibody, V domains shown) VH: QVQLQQWGAGLLKPSETLSLTCAVYGGSLSDYYWSWIRQPPGKGLEWIGEINHSGDTNYDPSLKSRLTISVDTSKNQFSLKLNSVTAADTAVYYCASLYFNFWMWGRGALVTVSS VL: DIVMTQTPLSSPVILGQPASISCRSSQSLVYSDGNTYLSWLQQRPGQPPRLLIYKISNRFSGVPDRFSGSGTGTDFTLKISRVEAEDVGIYYCMQTTQFPLTFGGGTKVEIK" assay_result=38400
binder="H1M3621N (antibody, V domains shown) VH: QVQLEQSGAEVKKPGASVRISCKASGDTFTGYYINWVRQAPGQGLEWMGWINTNSGGTYFSQKFQVRVILTRDTSINTAYMELSRLRSDDTAVYYCARMFYDILTNSDIFDIWGQGTMVTVSS VL: DIQMTQSPSSLSASVGDRVTITCRASQDIRNDLGWYQQKPGKAPKCLIYGASSLQSGVPSRFSGSGSGTEFTLTISSLQPEDFATYYCLQHKNYMYTFGQGTKLEIK" assay_result=205000

# input Consider the binder H1M3624N (antibody, V domains shown, also called H1M2634N) VH: QVQLEQSGAEVKKPGTSVRISCKASGDIFTGYYMNWVRQAPGQGLEWMGWINTNSGGTYFSQRFQGRVTLTRDTSIRTAYMELSRLRSDDTAVYYCARMFYDILTGSDVFDIWGQGTMVTVSS VL: DIQMTQSPSSLSASVGDRVTITCRASQDIRNDLGWYHQKPGKAPKCLIYGASSLQSGVPSRFSGSGSGTEFTLTISSLQPEDFATYYCLQHKNYMYTFGQGTKLEIK and give its recorded kon.
# output 179000

# input Consider the binder H1M3627N (antibody, V domains shown) VH: EVQLVESGGGLVQPGGSLRLSCAASGFTISNYEMNWVRQAPGKGLEWVSYISTSGITIYYADSVQGRFTISRDNAKNSLYLQLNSLRAEDTAVYYCARGYCTNGVCYPHYYYSDMDVWGQGTTVTVSS VL: DIQMTQSPSSLSASVGDRLTITCRASQTISTYLNWFQQKVGNAPKLLIYSTSSLQSGVPARFSGSGSGTDFTLTISSLQPEDFATYYCQQSYSSPPTFGQGTKVEIK and give its recorded kon.
# output 259000
